The values you see were collected from patent US5639773A.

experiment description: Acute toxicity test, mice
test conditions: mouse, in vivo; single oral administration, 4-week-old Jcl:ICR mice (males, females)
Method: The LD50 of compound 1 exceeded 2,000 mg/kg, as of single oral administration, in 4-week-old Jcl:ICR mice (males, females) and 5-week-old Jcl:Wistar rats (males, females).
measurement type: LD50

Problem: So what does the record say about LD50 for CCOc1nc2cccc(C(=O)OC(C)OC(=O)OC3CCCCC3)c2n1Cc1ccc(-c2ccccc2-c2nnn[nH]2)cc1 (racemic) ?
Solution: > 2000 mg/kg
